# Organism: Rattus norvegicus
# Procedure Summary: DrugMatrix - Regimen: Daily Repeat
# Assay type: toxicity, organism-based, Sprague-Dawley
# Set-up: regimen Daily Repeat, gender Male, age 6-8 weeks
# Applied Conditions: in vivo, po, 0 mg/kg, 120 h, tissue Blood, route oral GAVAGE, dose level Control, time 5 day, vehicle 100 % WATER
Metric Name: NUCLEATED RED BLOOD CELLS

Here's what some known entries look like.
CNCCC=C1c2ccccc2CCc2ccccc21
0 /100WBC
CN1CCN(C(=O)OC2c3nccnc3C(=O)N2c2ccc(Cl)cn2)CC1 (stereo unspecified)
0 /100WBC
NCC1(CC(=O)O)CCCCC1
0 /100WBC
CC1(C)S[C@@H]2[C@H](NC(=O)[C@H](N)c3ccc(O)cc3)C(=O)N2[C@H]1C(=O)O
0 /100WBC
NNC(=O)c1ccncc1
0.33 /100WBC

Proceed to the following item.
Looking up CC(C)(S)[C@@H](N)C(=O)O , I see its NUCLEATED RED BLOOD CELLS listed as 0.17 /100WBC
